Where do these numbers come from? They come from ChEMBL document CHEMBL2086246.

Please respond with reported Ki for every item in the list.
target_or_system: Activated CDC42 kinase 1 (Homo sapiens, UniProt Q07912)
Sequence (Q07912 whole entry): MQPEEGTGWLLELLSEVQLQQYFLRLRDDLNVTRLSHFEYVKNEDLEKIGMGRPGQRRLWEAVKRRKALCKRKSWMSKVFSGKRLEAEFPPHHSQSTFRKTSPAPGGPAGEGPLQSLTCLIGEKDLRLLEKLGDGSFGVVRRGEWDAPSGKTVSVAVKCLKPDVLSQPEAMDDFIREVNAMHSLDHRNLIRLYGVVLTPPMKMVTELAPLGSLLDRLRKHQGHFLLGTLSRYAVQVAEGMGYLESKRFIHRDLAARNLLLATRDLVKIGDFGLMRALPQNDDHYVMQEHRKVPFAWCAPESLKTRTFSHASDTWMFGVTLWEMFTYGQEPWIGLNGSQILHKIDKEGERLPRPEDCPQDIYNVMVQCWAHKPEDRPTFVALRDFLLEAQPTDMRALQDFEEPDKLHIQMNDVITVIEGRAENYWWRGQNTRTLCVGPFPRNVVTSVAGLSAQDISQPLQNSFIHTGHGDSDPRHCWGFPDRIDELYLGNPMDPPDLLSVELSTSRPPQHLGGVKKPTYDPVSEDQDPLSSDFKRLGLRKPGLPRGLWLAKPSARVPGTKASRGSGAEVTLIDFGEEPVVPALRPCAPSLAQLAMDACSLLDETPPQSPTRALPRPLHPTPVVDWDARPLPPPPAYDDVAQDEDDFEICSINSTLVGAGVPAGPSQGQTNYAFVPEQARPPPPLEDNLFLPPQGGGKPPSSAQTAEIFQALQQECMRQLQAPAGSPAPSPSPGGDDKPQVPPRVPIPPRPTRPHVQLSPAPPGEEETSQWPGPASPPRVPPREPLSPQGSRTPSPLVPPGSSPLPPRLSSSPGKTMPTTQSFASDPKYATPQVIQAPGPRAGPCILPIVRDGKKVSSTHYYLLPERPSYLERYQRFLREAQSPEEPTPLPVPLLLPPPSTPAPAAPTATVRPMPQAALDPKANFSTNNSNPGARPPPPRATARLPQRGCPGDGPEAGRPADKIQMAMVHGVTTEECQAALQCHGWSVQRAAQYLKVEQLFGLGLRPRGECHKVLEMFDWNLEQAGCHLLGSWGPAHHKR
protocol_summary: Inhibition of N-terminal His6-tagged ACK1 expressed in baculovirus infected Hi5 cells assessed as inhibition of autophosphorylation after 2 hrs by ELISA
Design: species or system BTI-TN-5B1-4
Give bare numbers, in nM.

Worked examples, 3 compounds total:
{"chemical_smiles": "O=C(c1ccc(-c2oc3ncnc(NC[C@@H]4CCCO4)c3c2-c2ccccc2)cc1)N1CCOCC1", "Ki [nM]": 6}
{"chemical_smiles": "CNC(=O)c1ccc(-c2[nH]c3ncnc(NC[C@@H]4CCCO4)c3c2-c2ccccc2)cc1", "Ki [nM]": 3}
{"chemical_smiles": "CN(C)CCOc1ccc(-c2[nH]c3ncnc(NC[C@@H]4CCCO4)c3c2-c2ccccc2)cc1", "Ki [nM]": 6}

Pending compound:
Exercise: # get_value(readout='Ki', item= COc1ccc(-c2oc3ncnc(NC[C@@H]4CCCO4)c3c2-c2ccccc2)cc1 )
Key: 5

====

target_or_system: Activated CDC42 kinase 1 (Homo sapiens)
protocol_summary: Inhibition of ACK1
readout_name: pKi
Give bare numbers, as −log10 of the molar value.

Exercise: Name the recorded pKi for Nc1ncnc2oc(-c3ccccc3)c(-c3ccccc3)c12 .
Key: 6.00

====

So I've got a bunch of molecules here, and I need their Ki values.
target_or_system: Activated CDC42 kinase 1 (Homo sapiens, UniProt Q07912)
protocol_summary: Inhibition of N-terminal His6-tagged ACK1 expressed in baculovirus infected Hi5 cells assessed as inhibition of autophosphorylation after 2 hrs by ELISA
Design: species or system BTI-TN-5B1-4
Numbers only, in nM.

For every listed record, write down its Ki.
1. c1ccc(-c2[nH]c3ncnc(NC[C@@H]4CCCO4)c3c2-c2ccccc2)cc1
2. Cc1ccccc1-c1c(-c2ccc(OCCN3CCCC3)cc2)[nH]c2ncnc(NC[C@@H]3CCCO3)c12
3. c1ccc(-c2c(-c3ccc(OCCN4CCCC4)cc3)[nH]c3ncnc(NC[C@@H]4CCCO4)c23)cc1
4. CN(C)CCOc1ccc(-c2[nH]c3ncnc(NC[C@@H]4CCCO4)c3c2C2CC2)cc1
5. O=C(c1ccc(-c2[nH]c3ncnc(NC[C@@H]4CCCO4)c3c2-c2ccccc2)cc1)N1CCOCC1

Key:
1: 6; 2: 20; 3: 6; 4: 1980; 5: 6

====

Record form. Attribute: Ki. Fill in for each entry.
target_or_system: Activated CDC42 kinase 1 (Homo sapiens)
protocol_summary: Inhibition of N-terminal His6-tagged ACK1 expressed in baculovirus infected Hi5 cells assessed as inhibition of autophosphorylation after 2 hrs by ELISA
Set-up: species or system BTI-TN-5B1-4
Answers are plain numbers, in nM.

Here's what some known entries look like.
{"chemical_smiles": "CO[C@@H]1CCC[C@H]1CNc1ncnc2[nH]c(-c3ccc(OCCN(C)C)cc3)c(-c3ccccc3)c12", "target_or_system": "Activated CDC42 kinase 1 (Homo sapiens)", "reported_measurement": 50}
{"chemical_smiles": "CN(C)S(=O)(=O)c1ccc(-c2[nH]c3ncnc(NC[C@@H]4CCCO4)c3c2-c2ccccc2)cc1", "target_or_system": "Activated CDC42 kinase 1 (Homo sapiens)", "reported_measurement": 2}
{"chemical_smiles": "CS(=O)(=O)c1ccc(-c2oc3ncnc(NC[C@@H]4CCCO4)c3c2-c2ccccc2)cc1", "target_or_system": "Activated CDC42 kinase 1 (Homo sapiens)", "reported_measurement": 8}
{"chemical_smiles": "O=C1CCCN1CCOc1ccc(-c2oc3ncnc(NC[C@@H]4CCCO4)c3c2-c2ccccc2)cc1", "target_or_system": "Activated CDC42 kinase 1 (Homo sapiens)", "reported_measurement": 4}

Pending compound:
Exercise: Returns the measured Ki for the input compound. Input: COc1cccc(-c2c(-c3ccc(OCCN4CCCC4)cc3)[nH]c3ncnc(NC[C@@H]4CCCO4)c23)c1
Key: 10
